# System: FLT3
# Set-up: species or system human, MV4-11 + K-562 + COLO205 + SK-N-BE2 + OVCAR-8
# ASSAY_SETUP: read-out: apparent Kd; compound concentrations:100 nM and 1000 nM (sheet 'Samples'); n = 1
Assign potency estimated from few doses to each entry below.
Give bare numbers, in nM.

These recorded examples may help you get a feel for the data.
>>> result("CS(=O)(=O)Cc1ccc(Nc2nccc(-c3c(-c4cccc(NC(=O)C5CCCCC5)c4)nn4ncccc34)n2)cc1 [GSK350559A]")
660
>>> result("CC(=O)Nc1n[nH]c2ncc(-c3ccccc3)cc12 [SB-548492]")
1040
>>> result("COC(=O)Nc1nc2ccc(Oc3ccc(CC(=O)Nc4cc(C(F)(F)F)ccc4F)cc3)cc2[nH]1 [GW680903X]")
713

Now examine the next entry.
# returns recorded potency estimated from few doses (system: FLT3) for NS(=O)(=O)c1ccc(Nc2ncc(-c3ccccc3)o2)cc1 [GW572399X]
164
